Please provide measured IC50 for the entries that follow.
studyTarget: Sodium-dependent serotonin transporter (Rattus norvegicus)
Sequence (P31652 whole entry): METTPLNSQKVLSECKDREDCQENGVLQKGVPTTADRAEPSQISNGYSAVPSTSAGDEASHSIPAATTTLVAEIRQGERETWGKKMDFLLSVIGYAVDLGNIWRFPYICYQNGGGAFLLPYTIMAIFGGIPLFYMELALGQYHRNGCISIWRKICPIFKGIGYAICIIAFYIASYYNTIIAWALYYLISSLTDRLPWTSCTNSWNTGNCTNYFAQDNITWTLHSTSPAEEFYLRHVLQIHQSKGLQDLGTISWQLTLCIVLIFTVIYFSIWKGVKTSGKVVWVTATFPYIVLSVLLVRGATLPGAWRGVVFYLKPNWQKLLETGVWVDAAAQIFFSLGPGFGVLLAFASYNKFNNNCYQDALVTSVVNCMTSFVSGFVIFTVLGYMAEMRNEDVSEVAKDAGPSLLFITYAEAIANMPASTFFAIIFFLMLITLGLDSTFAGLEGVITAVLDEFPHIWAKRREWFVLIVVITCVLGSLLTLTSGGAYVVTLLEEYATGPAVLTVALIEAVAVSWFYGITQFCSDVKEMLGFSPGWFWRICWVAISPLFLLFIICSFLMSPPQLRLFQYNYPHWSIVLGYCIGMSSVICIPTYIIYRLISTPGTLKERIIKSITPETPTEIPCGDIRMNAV
assayExplanation: Inhibitory activity against incorporation of [3H]5-HT transporter uptake into the differentiated N-2a cells.
Assay type: cell-based
A bare number is not enough; add the unit after it.

Please review the following examples before continuing.
entrySmiles | IC50
Cc1c(O)c(O)cc2c(CCN)c[nH]c12 | 51.8 µM
Cc1c(O)c(O)cc2[nH]cc(CCN)c12 | 23 µM

Alright, here's another molecule for you.
Exercise: Name the recorded IC50 of the molecule listed here: "Cc1c(O)c(O)c(C)c2c(CCN)c[nH]c12"
Solution: 19.7 µM
